A compilation of pKi values for Apoptosis regulator Bcl-2 (Homo sapiens) from the published literature.
pKi: −log10 of the molar value.

# example entries with known answers
Cc1cccc(CN(Cc2ccc(F)cc2)S(=O)(=O)c2cc(Cl)cc(Cl)c2O)c1
6.14
COc1c(CN2O[C@@H](CNC(C)=O)[C@@H]([C@H](C)O)[C@H]2C(=O)N[C@H]2C[C@H]3C[C@@H]([C@@H]2C)C3(C)C)cccc1-c1cc(C(=O)NCCc2ccccc2)cc(N(C)C)c1
8.05 to 8.30
C[C@@H](O)[C@H]1[C@@H](CO)ON(Cc2cccc(C#CCNS(=O)(=O)c3cccc4cccnc34)c2)[C@H]1C(=O)NCCCN(C)c1ccccc1
5.22 to 6.10
COc1ccc(Br)cc1CN(Cc1cccc(CN2OC(CO)C(C(C)O)C2C(=O)NC2CC3CC(C2C)C3(C)C)c1)C(CC(C)C)CN(C)C (stereo not shown)
> 6.10
C[C@@H]1[C@@H](NC(=O)[C@@H]2C([C@H](C)O)[C@H](CO)ON2Cc2cccc(CN(CCN(C)C)Cc3ccccc3-c3ccccc3F)c2)C[C@H]2C[C@@H]1C2(C)C (stereo partly shown)
> 6.10
CC(C)CNC(=O)c1cccc(-c2cccc(CN3O[C@@H](CO)[C@@H]([C@H](C)O)[C@H]3C(=O)N[C@H]3C[C@H]4C[C@@H]([C@@H]3C)C4(C)C)c2)c1
> 6.10
C[C@H](O)[C@@H]1[C@H](CO)ON(Cc2cccc(-c3cccc(NS(C)(=O)=O)c3)c2)[C@@H]1C(=O)NC1C[C@H]2C[C@@H]([C@@H]1C)C2(C)C (stereo partly shown)
> 6.10
O=C(NS(=O)(=O)c1ccc(N[C@@H](CSc2ccccc2)C[C@@H]2CCCN2)c(S(=O)(=O)C(F)(F)F)c1)c1ccc(N2CCC([C@@H](O)c3ccccc3-c3ccc(Cl)cc3)CC2)cc1
9.96
C[C@@H]1[C@@H](NC(=O)[C@@H]2[C@H]([C@H](C)O)[C@H](CO)ON2CCCCN(CCN(C)C)CC2CCCCC2)C[C@H]2C[C@@H]1C2(C)C
5.22 to 6.10
C[C@@H]1[C@@H](NC(=O)[C@@H]2[C@H]([C@H](C)O)[C@H](CN)ON2Cc2cccc(-c3cc(C(=O)N[C@@H](Cc4ccccc4)CN(C)C)cc(N(C)C)c3)c2F)C[C@H]2C[C@@H]1C2(C)C
> 9.00

So what pKi did "CC(C)CN(Cc1cccc(CN(Cc2ccc(-c3ccc(F)cc3)cc2)S(=O)(=O)c2cc(Cl)cc(Cl)c2O)c1)C(=O)c1nc2ccccc2s1" get with Apoptosis regulator Bcl-2 (Homo sapiens)?
6.96

Please do the same for CC(O)C1C(CO)ON(Cc2cccc(C(=O)NC(Cc3ccccc3)CN(C)C)c2)C1C(=O)NC1CC2CC(C1C)C2(C)C (stereo not shown) as well.
> 6.10

Please do the same for CC(O)C1C(CO)ON(Cc2cccc(CN(CCN(C)C)Cc3ccccc3-c3ccc(F)cc3)c2)C1C(=O)NC1CC2CC(C1C)C2(C)C (stereo not shown) as well.
> 6.10
